Each entry below carries its recorded Fluorescence time course, Clostridium.
Tested on: Clostridium diaphorase
assay procedure: Fluorescent NADH detection assay, Clostridium diaphorase
Type: biochemical
condition details: 50 min; 10 uM NADH

{"columns": ["compound", "test system", "Fluorescence time course, Clostridium"],
 "data": [
  ["CC1=C(C)C(=O)C(C(C)(C)CC(=O)N(C)CCN(C)C(=O)Oc2ccc3c(c2)Oc2cc(O)ccc2C32OC(=O)c3ccccc32)=C(C)C1=O (stereo not shown) [PBI 4440]", "Clostridium diaphorase", "43000 FLUs"],
  ["CC1=CC(=O)C(C)=C(C(C)(C)CC(=O)N(C)CCN(C)C(=O)Oc2ccc3c(c2)Oc2cc(OC(=O)N(C)CCN(C)C(=O)CC(C)(C)C4=C(C)C(=O)C=C(C)C4=O)ccc2C32OC(=O)c3ccccc32)C1=O [PBI 4413]", "Clostridium diaphorase", "3519 FLUs"],
  ["CC1=C(C)C(=O)C(C(C)(C)CC(=O)N(C)CCN(C)C(=O)Oc2ccc3c(c2)Oc2cc(OC(=O)N(C)CCN(C)C(=O)CC(C)(C)C4=C(C)C(=O)C(C)=C(C)C4=O)ccc2C32OC(=O)c3ccccc32)=C(C)C1=O [PBI 4441]", "Clostridium diaphorase", "2514 FLUs"],
  ["CC1=CC(=O)C(C)=C(C(C)(C)CC(=O)N(C)CCN(C)C(=O)Oc2ccc3c(c2)Oc2cc(O)ccc2C32OC(=O)c3ccccc32)C1=O (stereo not shown) [PBI 4412]", "Clostridium diaphorase", "123934 FLUs"]
]}

* * *

Each entry below carries its recorded Fluorescence time course, Clostridium.
Tested on: Clostridium diaphorase
assay procedure: Fluorescent NADH detection assay, Clostridium diaphorase
Format: biochemical
condition details: 4 min; 10 uM NADH

{"columns": ["compound", "test system", "Fluorescence time course, Clostridium / FLUs"],
 "data": [
  ["CC1=CC(=O)C(C)=C(C(C)(C)CC(=O)N(C)CCN(C)C(=O)Oc2ccc3c(c2)Oc2cc(O)ccc2C32OC(=O)c3ccccc32)C1=O (stereo not shown)", "Clostridium diaphorase", 24883],
  ["CC1=C(C)C(=O)C(C(C)(C)CC(=O)N(C)CCN(C)C(=O)Oc2ccc3c(c2)Oc2cc(OC(=O)N(C)CCN(C)C(=O)CC(C)(C)C4=C(C)C(=O)C(C)=C(C)C4=O)ccc2C32OC(=O)c3ccccc32)=C(C)C1=O", "Clostridium diaphorase", 481],
  ["CC1=CC(=O)C(C)=C(C(C)(C)CC(=O)N(C)CCN(C)C(=O)Oc2ccc3c(c2)Oc2cc(OC(=O)N(C)CCN(C)C(=O)CC(C)(C)C4=C(C)C(=O)C=C(C)C4=O)ccc2C32OC(=O)c3ccccc32)C1=O", "Clostridium diaphorase", 457],
  ["CC1=C(C)C(=O)C(C(C)(C)CC(=O)N(C)CCN(C)C(=O)Oc2ccc3c(c2)Oc2cc(O)ccc2C32OC(=O)c3ccccc32)=C(C)C1=O (stereo not shown)", "Clostridium diaphorase", 7197]
]}

* * *

test system: rat diaphorase (Rattus norvegicus, UniProt P05982)
Construct: purchased Sigma
Assay type: biochemical
condition details: 110 min; 10 uM NADH

{"columns": ["compound", "Fluorescence time course, Rat / FLUs"],
 "data": [
  ["CC1=CC(=O)C(C)=C(C(C)(C)CC(=O)N(C)CCN(C)C(=O)Oc2ccc3c(c2)Oc2cc(O)ccc2C32OC(=O)c3ccccc32)C1=O (stereo not shown)", 182051],
  ["CC1=CC(=O)C(C)=C(C(C)(C)CC(=O)N(C)CCN(C)C(=O)Oc2ccc3c(c2)Oc2cc(OC(=O)N(C)CCN(C)C(=O)CC(C)(C)C4=C(C)C(=O)C=C(C)C4=O)ccc2C32OC(=O)c3ccccc32)C1=O", 15434],
  ["CC1=C(C)C(=O)C(C(C)(C)CC(=O)N(C)CCN(C)C(=O)Oc2ccc3c(c2)Oc2cc(O)ccc2C32OC(=O)c3ccccc32)=C(C)C1=O (stereo not shown)", 182253],
  ["CC1=C(C)C(=O)C(C(C)(C)CC(=O)N(C)CCN(C)C(=O)Oc2ccc3c(c2)Oc2cc(OC(=O)N(C)CCN(C)C(=O)CC(C)(C)C4=C(C)C(=O)C(C)=C(C)C4=O)ccc2C32OC(=O)c3ccccc32)=C(C)C1=O", 10736]
]}

* * *

Each entry below carries its recorded Fluorescence time course, Rat.
test system: rat diaphorase (Rattus norvegicus, UniProt P05982)
Construct: purchased Sigma
Sequence (P05982 2-274 limits assumed): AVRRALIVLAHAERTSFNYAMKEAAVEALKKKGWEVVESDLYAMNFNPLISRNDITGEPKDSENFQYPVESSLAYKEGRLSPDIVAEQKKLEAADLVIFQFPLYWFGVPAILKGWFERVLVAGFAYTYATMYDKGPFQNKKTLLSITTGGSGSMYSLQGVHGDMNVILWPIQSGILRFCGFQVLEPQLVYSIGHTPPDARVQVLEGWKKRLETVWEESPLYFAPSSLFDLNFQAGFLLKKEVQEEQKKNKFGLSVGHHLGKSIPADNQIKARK
Assay type: biochemical
condition details: 80 min; 10 uM NADH
measured parameter: Fluorescence time course, Rat (FLUs)

{"columns": ["molecule", "readout unit", "meas value"],
 "data": [
  ["CC1=C(C)C(=O)C(C(C)(C)CC(=O)N(C)CCN(C)C(=O)Oc2ccc3c(c2)Oc2cc(OC(=O)N(C)CCN(C)C(=O)CC(C)(C)C4=C(C)C(=O)C(C)=C(C)C4=O)ccc2C32OC(=O)c3ccccc32)=C(C)C1=O [PBI 4441]", "FLUs", 9545],
  ["CC1=C(C)C(=O)C(C(C)(C)CC(=O)N(C)CCN(C)C(=O)Oc2ccc3c(c2)Oc2cc(O)ccc2C32OC(=O)c3ccccc32)=C(C)C1=O (stereo not shown) [PBI 4440]", "FLUs", 182416],
  ["CC1=CC(=O)C(C)=C(C(C)(C)CC(=O)N(C)CCN(C)C(=O)Oc2ccc3c(c2)Oc2cc(OC(=O)N(C)CCN(C)C(=O)CC(C)(C)C4=C(C)C(=O)C=C(C)C4=O)ccc2C32OC(=O)c3ccccc32)C1=O [PBI 4413]", "FLUs", 10959],
  ["CC1=CC(=O)C(C)=C(C(C)(C)CC(=O)N(C)CCN(C)C(=O)Oc2ccc3c(c2)Oc2cc(O)ccc2C32OC(=O)c3ccccc32)C1=O (stereo not shown) [PBI 4412]", "FLUs", 177516]
]}

* * *

Test system: Clostridium diaphorase
assay procedure: Fluorescent NADH detection assay, Clostridium diaphorase
Format: biochemical
condition details: 10 min; 10 uM NADH
Each entry below carries its recorded Fluorescence time course, Clostridium.

{"columns": ["compound", "Fluorescence time course, Clostridium [FLUs]"],
 "data": [
  ["CC1=CC(=O)C(C)=C(C(C)(C)CC(=O)N(C)CCN(C)C(=O)Oc2ccc3c(c2)Oc2cc(OC(=O)N(C)CCN(C)C(=O)CC(C)(C)C4=C(C)C(=O)C=C(C)C4=O)ccc2C32OC(=O)c3ccccc32)C1=O", 1195],
  ["CC1=C(C)C(=O)C(C(C)(C)CC(=O)N(C)CCN(C)C(=O)Oc2ccc3c(c2)Oc2cc(O)ccc2C32OC(=O)c3ccccc32)=C(C)C1=O (stereo not shown)", 20624],
  ["CC1=C(C)C(=O)C(C(C)(C)CC(=O)N(C)CCN(C)C(=O)Oc2ccc3c(c2)Oc2cc(OC(=O)N(C)CCN(C)C(=O)CC(C)(C)C4=C(C)C(=O)C(C)=C(C)C4=O)ccc2C32OC(=O)c3ccccc32)=C(C)C1=O", 1152],
  ["CC1=CC(=O)C(C)=C(C(C)(C)CC(=O)N(C)CCN(C)C(=O)Oc2ccc3c(c2)Oc2cc(O)ccc2C32OC(=O)c3ccccc32)C1=O (stereo not shown)", 60458]
]}

* * *

System: Clostridium diaphorase
assay procedure: Fluorescent NADH detection assay, Clostridium diaphorase
Assay type: biochemical
condition details: 20 min; 10 uM NADH
Method: Each fluorescent substrate (PBI-4412, 4413, 4440, and 4441) was incubated at 920 μM with 0 μM or 10 μM NADH (Sigma) or a titration of NADH (Table 8) and 1 u/ml rat diaphorase (Sigma) or 1 u/ml Clostridium diaphorase (Sigma) in a volume of 100 μl in 50 mM Tris pH 7.5. […] Fluorescence was monitored over the course of two hours at excitation and emission wavelengths of 485 and 527, respectively, using a fluorescence plate reader. […]
measured parameter: Fluorescence time course, Clostridium (FLUs)

{"columns": ["molecule", "meas value"],
 "data": [
  ["CC1=C(C)C(=O)C(C(C)(C)CC(=O)N(C)CCN(C)C(=O)Oc2ccc3c(c2)Oc2cc(O)ccc2C32OC(=O)c3ccccc32)=C(C)C1=O (stereo not shown)", 33781],
  ["CC1=CC(=O)C(C)=C(C(C)(C)CC(=O)N(C)CCN(C)C(=O)Oc2ccc3c(c2)Oc2cc(O)ccc2C32OC(=O)c3ccccc32)C1=O (stereo not shown)", 95260],
  ["CC1=CC(=O)C(C)=C(C(C)(C)CC(=O)N(C)CCN(C)C(=O)Oc2ccc3c(c2)Oc2cc(OC(=O)N(C)CCN(C)C(=O)CC(C)(C)C4=C(C)C(=O)C=C(C)C4=O)ccc2C32OC(=O)c3ccccc32)C1=O", 2167],
  ["CC1=C(C)C(=O)C(C(C)(C)CC(=O)N(C)CCN(C)C(=O)Oc2ccc3c(c2)Oc2cc(OC(=O)N(C)CCN(C)C(=O)CC(C)(C)C4=C(C)C(=O)C(C)=C(C)C4=O)ccc2C32OC(=O)c3ccccc32)=C(C)C1=O", 1974]
]}
